# credit: patent US10165777B2

tested on: Echinochloa crus-galli; assay: Paddy herbicidal activity test; type: in vivo; conditions: 5 g a.i./10 a; irrigated pot, treated at 3.5 leaf stage of Echinochloa crus-galli; 30 days
MEASURED ATTRIBUTE: herbicidal efficacy, Echinochloa crus-galli

Suppose we examine the compound N#Cc1cnn(-c2nn3c(c2Cl)CCCC3)c1/C=C/c1ncccn1 [Compound 3.39, reference compound] ; what herbicidal efficacy, Echinochloa crus-galli value has been reported?
2 (20% to less than 30%)

Suppose we examine the compound COC=Nc1c(C#N)cnn1-c1nn2c(c1Cl)CCCC2 ; what herbicidal efficacy, Echinochloa crus-galli value has been reported?
9 (90% to less than 100%)

Suppose we examine the compound N#Cc1cnn(-c2nn3c(c2Cl)CCCC3)c1N=Cc1cccnc1 ; what herbicidal efficacy, Echinochloa crus-galli value has been reported?
10 (100%)

Suppose we examine the compound N#Cc1cnn(-c2nn3c(c2Cl)CCCC3)c1N=Cc1ccncc1 ; what herbicidal efficacy, Echinochloa crus-galli value has been reported?
10 (100%)

Suppose we examine the compound N#Cc1cnn(-c2nn3c(c2Cl)CCCC3)c1N=CC1CCCCC1 ; what herbicidal efficacy, Echinochloa crus-galli value has been reported?
10 (100%)

Suppose we examine the compound N#Cc1cnn(-c2nn3c(c2Cl)CCCC3)c1/C=C/c1ccccn1 [Compound 3.43, reference compound] ; what herbicidal efficacy, Echinochloa crus-galli value has been reported?
3 (30% to less than 40%)

Suppose we examine the compound N#Cc1cnn(-c2nn3c(c2Br)CCCC3)c1/C=C/c1ccccn1 [Compound 3.44, reference compound] ; what herbicidal efficacy, Echinochloa crus-galli value has been reported?
2 (20% to less than 30%)
